Values from the supplement of paper PMC10065799

Target: SHP2-C SH2
Assay: SH2 binding enrichment of the phosphorylated peptide, bacterial display (enrichment ratio); higher = better substrate or ligand; peptides without Tyr show the background
measurement-name: SH2 binding enrichment

Task: Dear colleague, please send me the reported SH2 binding enrichment for DQLVKHGVNPG [TMPO_Y127_Y127H] when you can.
Result: 0.702

Task: Report measured SH2 binding enrichment; entry is PHMQTYEVDLN [SDHB_Y61]
Result: 0.716

Task: Supply recorded SH2 binding enrichment for PNATLYKMTSI [SERPINA7_Y40_S43T] here.
Result: 0.684

----------
Biological target: c-Src SH2
Experiment: SH2 binding enrichment of the phosphorylated peptide, bacterial display (enrichment ratio); higher = better substrate or ligand; peptides without Tyr show the background
measurement-name: SH2 binding enrichment

Task: Name the value of SH2 binding enrichment reported for EYKKKYSDADI [CKAP5_Y1860] when tested on c-Src SH2.
Result: 0.435

(P) DRPASYLDKVR [KRT17_Y98_L95P]
(Q) DYGSGYPNDPK [RNASEH2A_Y210]
Task: # query: argmin of SH2 binding enrichment over P and Q Label of pick, please.
Result: Q
(Q: 0.319, P: 0.502)

(A) KPLMPCMRFSR [SMARCE1_Y73_Y73C_YF]
(B) PFRKLYESVKK [MKI67_Y241_W238R]
(C) ISMAGYSIPEL [EDAR_Y406_T403M]
(D) IGHGSYAKVLL [PRKCZ_Y263_R260H]
Task: Hey, quick one: sort these by SH2 binding enrichment, low to high? Put the labels in the requested order and list them out.
Result: A, B, D, C

(1) GRDQPYSGAGD [TYRO3_Y828]
(2) EADRKYEEVAR [TPM3_Y163]
Task: 1 or 2 : whose SH2 binding enrichment is greater? Let me know the label of the one you choose.
Result: 2

----------
Collected phosphorylation enrichment values appear next to each entry.
Biological target: FGFR3 (UniProt P22607)
Sequence (P22607 whole entry, looked up): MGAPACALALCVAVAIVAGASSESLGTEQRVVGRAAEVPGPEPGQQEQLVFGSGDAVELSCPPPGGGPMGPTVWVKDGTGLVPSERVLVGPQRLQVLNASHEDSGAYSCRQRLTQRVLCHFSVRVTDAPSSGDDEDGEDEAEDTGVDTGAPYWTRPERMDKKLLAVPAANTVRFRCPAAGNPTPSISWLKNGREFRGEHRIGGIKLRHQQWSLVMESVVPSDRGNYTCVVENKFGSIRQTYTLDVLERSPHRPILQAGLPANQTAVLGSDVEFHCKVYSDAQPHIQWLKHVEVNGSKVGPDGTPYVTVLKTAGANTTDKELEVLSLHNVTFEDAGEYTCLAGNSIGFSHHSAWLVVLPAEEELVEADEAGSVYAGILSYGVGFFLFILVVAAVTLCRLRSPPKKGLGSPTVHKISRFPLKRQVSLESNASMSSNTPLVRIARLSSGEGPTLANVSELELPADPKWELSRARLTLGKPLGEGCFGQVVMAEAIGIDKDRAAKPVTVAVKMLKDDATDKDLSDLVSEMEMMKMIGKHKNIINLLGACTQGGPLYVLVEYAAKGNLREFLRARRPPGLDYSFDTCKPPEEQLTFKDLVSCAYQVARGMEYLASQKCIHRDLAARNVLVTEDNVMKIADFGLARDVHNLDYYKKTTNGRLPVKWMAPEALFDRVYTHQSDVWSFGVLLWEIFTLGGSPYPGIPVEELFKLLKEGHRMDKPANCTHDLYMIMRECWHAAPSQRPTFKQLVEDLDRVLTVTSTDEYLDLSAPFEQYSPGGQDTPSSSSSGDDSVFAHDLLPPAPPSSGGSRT
Assay: phosphorylation enrichment, bacterial display (enrichment ratio); higher = better substrate or ligand; peptides without Tyr show the background
Give the figure by itself; no unit, no explanation.

Task: Print FGFR3 (UniProt P22607) phosphorylation enrichment for FPHVIYARLWR [SMAD4_Y95] .
Result: 0.648

Task: Quote FGFR3 (UniProt P22607) phosphorylation enrichment for entry SNPAYYVLEGV [INPPL1_Y987_N982S] .
Result: 12.1

Task: Report value: phosphorylation enrichment, system: FGFR3 (UniProt P22607), sequence: GVRYIYTIDGS [DCX_Y105]
Result: 0.743

Further cases:
Task: Print FGFR3 (UniProt P22607) phosphorylation enrichment for LHAAAYWNALA [UQCRC2_Y182_R183W] .
Result: 0.564

Task: Tell me phosphorylation enrichment of DEYLEYRRIVG [FAM221A_Y20] when tested on FGFR3 (UniProt P22607).
Result: 0.968

----------
System: c-Src
Test: phosphorylation enrichment, bacterial display (enrichment ratio); higher = better substrate or ligand; peptides without Tyr show the background
The entries below are paired with their reported phosphorylation enrichment.
The answer should be written as a number, with no unit following it.

Task: Please look at this sequence and report its phosphorylation enrichment: YGPPQYNMQYS [ERBB2IP_Y977_I979M]
Result: 0.499

Task: Give recorded phosphorylation enrichment. FADIAYNFHHG [PAH_Y166_R169H_YF]
Result: 0.501

Moving on to the next sequence.
Task: Assign phosphorylation enrichment to the following record: LTNDRYVATLT [IL6ST_Y396_L397V]
Result: 0.69

----------
Test system: Fer (mouse)
Assay: phosphorylation enrichment, bacterial display (enrichment ratio); higher = better substrate or ligand; peptides without Tyr show the background
measurement-name: phosphorylation enrichment
Respond with the number and no other words.

Some entries whose results are on file:
Task: Supply measured phosphorylation enrichment of ALAAPYVLFPS [CEFIP_Y1332_G1337S_YF] in your reply.
Result: 0.504

Task: Let me know recorded phosphorylation enrichment for PTTKTYFPQFD [HBA1_Y43_H46Q] , thanks.
Result: 0.499

Next:
Task: For the sequence PDGVEYLKNNP [GRIN3A_Y831_D835N] , give its reported phosphorylation enrichment.
Result: 0.499

Task: Indicate the recorded phosphorylation enrichment value for this sequence: IFSGIYFKPES [L2HGDH_Y102_H98Y_YF]
Result: 0.459

Task: Return the recorded phosphorylation enrichment value; entry: RASGIYYVPKG [APBB1IP_Y340]
Result: 1.82

Task: Consider the sequence TWSSSYRSDRL [CRYBB1_Y131] and give its recorded phosphorylation enrichment.
Result: 0.477

Task: Read off the recorded phosphorylation enrichment for GLRYGYGGLGG [KRTAP20-2_Y15_V17G]
Result: 0.334

Task: Check the records and state phosphorylation enrichment for DFPGIYSGYDD [POLR1C_Y33_N32I]
Result: 0.687

Task: Could you please provide reported phosphorylation enrichment for APNEFYDGDHD [HDAC3_Y414] ? Thanks!
Result: 0.59

Task: Please list phosphorylation enrichment recorded for the sequence PGPQSYPTVTG [PAX5_Y299_I301T]
Result: 0.63

Task: Please list phosphorylation enrichment recorded for the sequence LNNIIYRVERA [CUX2_Y1470]
Result: 0.748

Task: Look up phosphorylation enrichment of LEFGDYHPLKP [VPS35L_Y32] and report it.
Result: 0.846

Task: Note phosphorylation enrichment for the sequence shown: SESSYYKSLNL [NGEF_Y289_A286S]
Result: 0.624

----------
Target: Fyn (UniProt P06241)
Sequence (P06241 whole entry, looked up): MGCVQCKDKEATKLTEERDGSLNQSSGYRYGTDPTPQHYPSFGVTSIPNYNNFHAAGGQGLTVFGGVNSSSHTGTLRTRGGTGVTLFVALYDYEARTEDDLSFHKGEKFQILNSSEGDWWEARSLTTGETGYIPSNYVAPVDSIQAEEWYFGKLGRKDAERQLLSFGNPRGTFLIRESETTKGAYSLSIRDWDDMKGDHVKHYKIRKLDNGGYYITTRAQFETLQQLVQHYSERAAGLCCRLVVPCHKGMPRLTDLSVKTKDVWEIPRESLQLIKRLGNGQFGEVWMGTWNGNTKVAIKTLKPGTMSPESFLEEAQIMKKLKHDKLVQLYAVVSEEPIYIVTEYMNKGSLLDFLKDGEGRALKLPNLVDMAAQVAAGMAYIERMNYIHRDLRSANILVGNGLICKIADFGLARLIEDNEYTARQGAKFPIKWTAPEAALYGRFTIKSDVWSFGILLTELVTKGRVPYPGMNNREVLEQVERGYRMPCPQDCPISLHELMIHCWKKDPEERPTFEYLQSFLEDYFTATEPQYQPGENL
Experiment: phosphorylation enrichment, bacterial display (enrichment ratio); higher = better substrate or ligand; peptides without Tyr show the background
phosphorylation enrichment overview
Response field accepts a number only; no unit should be typed.

// worked examples, phosphorylation enrichment included
Task: Give phosphorylation enrichment for the following sequence: AGIVDYNIIGW [MYH7_Y588]
Result: 0.497

Task: Answer with reported phosphorylation enrichment of QADVIYVNTQL [MERTK_Y872]
Result: 2.13

Task: Given FFWDGYMPRQF [GSS_Y270_R267W_YF] , respond with its phosphorylation enrichment.
Result: 0.349

Next:
Task: # return recorded phosphorylation enrichment for entry KMATAYIRRMS [BCO1_Y264]
Result: 0.425

----------
Molecular target: c-Src SH2
Experiment: SH2 binding enrichment of the phosphorylated peptide, bacterial display (enrichment ratio); higher = better substrate or ligand; peptides without Tyr show the background
measurement-name: SH2 binding enrichment

Task: Please indicate SH2 binding enrichment recorded for YPQARYHWLVL [APTX_Y214_K211Q]
Result: 0.98

Task: Specify SH2 binding enrichment for TGQEEYSAMRD [KRAS_Y64_A59T] and stop.
Result: 0.639

Task: Tell me SH2 binding enrichment reported for CTTFHYNYMCN [TP53_Y234_I232F]
Result: 4.4

Task: Please report the measured SH2 binding enrichment for RKKEEYKMALF [F8_Y1990_YF]
Result: 0.846

Task: Answer with the recorded SH2 binding enrichment for the sequence listed here: VVLGSYDRLRV [IFT172_Y260]
Result: 1.17

Task: Supply SH2 binding enrichment value. Item: LHQSTYQCFDV [SLC7A14_Y693_R695C_YF]
Result: 0.455

Task: Give reported SH2 binding enrichment value for GKTQQYECKWY [BCR_Y751_D752E]
Result: 0.735

Task: Quote SH2 binding enrichment reported for GGFTCYCDGKK [PROS1_Y266_YF] please.
Result: 0.409

Task: Return reported SH2 binding enrichment. Input sequence: APNEFYDGDHD [HDAC3_Y414]
Result: 0.57

Task: Indicate its recorded SH2 binding enrichment; the sequence in question is AEFGLYRAMVR [VSX2_Y222_G223R_YF]
Result: 0.633

(1) RNDRVYQPLRD [CD3D_Y149_Q147R]
(2) DDLEVYLKHPL [SACS_Y3477_L3481P]
Task: Look at 1 and 2 . Which one has the lower recorded SH2 binding enrichment number? Identify your selection by its label.
Result: 2

----------
Molecular target: c-Src SH2
Assay: SH2 binding enrichment of the phosphorylated peptide, bacterial display (enrichment ratio); higher = better substrate or ligand; peptides without Tyr show the background
measurement-name: SH2 binding enrichment

Task: Return the recorded SH2 binding enrichment value; entry: WHYTFYNELRV [ACTC1_Y93_H90Y]
Result: 0.572

Task: Please indicate SH2 binding enrichment recorded for NVADHYRVFKP [ATP6V0D2_Y271_G272R_YF]
Result: 0.397

Task: In one line, give reported SH2 binding enrichment of the entry FQLENCCNGGG [INS_Y108_Y108C_YF] .
Result: 0.537

Task: Please indicate SH2 binding enrichment recorded for QMVGMYASFYM [AVPR2_Y124_S127F]
Result: 0.538

Task: State its SH2 binding enrichment: RYVTRSIYNRE [HLA-DQB1_Y62_Y62S]
Result: 0.543

Task: Output measured SH2 binding enrichment for this item: EVLKNYSQQKD [GOLGA4_Y1551_N1552S]
Result: 0.501

Task: Supply measured SH2 binding enrichment of HTVEDYQAIVD [CCT7_Y263] in your reply.
Result: 0.465
